Molecular target: Farnesyltransferase (FTase) (Bos taurus, UniProt P29702+P49355)
Construct: precipitation from a beef brain homogenate; from tissue; host or cells: bovine brain
Test: Farnesyltransferase inhibition (scintillation proximity assay, [3H]-FPP / biotin-K-ras peptide)
Format: biochemical, bovine
Conditions: compound at 10^−6 M; bovine FTase, 37° C., 30 minutes
Structures can show the parent of a compound that is named as a salt.
assayMetric: inhibition at 1 µM (%)
Give just the numeric value; % need not be written.

Input: State the recorded inhibition at 1 µM for this entry: CC(=O)Nc1ccc(CN(Cc2ccc(C#N)c(-c3cccc4ccccc34)c2)Cc2cncn2C)cc1 [Example 194, dihydrochloride]
Output: 97

Input: Quick check: inhibition at 1 µM of N#Cc1ccc(COC(c2ccsc2)c2ccc(C#N)c(-c3cccc4ccccc34)c2)nc1 (stereo not drawn) [Example 289] ?
Output: 75

Input: Record request: inhibition at 1 µM value, item Cc1ccccc1-c1cc(C(OCc2ccc3ccccc3c2)c2cncn2C)ccc1C#N (stereo not drawn) [Example 183, hydrochloride]
Output: 90

Input: Requested field: inhibition at 1 µM. Item: Cc1ccccc1-c1cc(C(OCc2ccccc2F)c2cncn2C)ccc1C#N (stereo not drawn) [Example 138, hydrochloride]
Output: 92
